- System: S. cerevisiae SK1 pCDA2-eGFP (USY613), sporulating;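 further: active if sensitivity score above 5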
- assay.method.text: CDA2-GFP sporulation assay sensitivity score (z-score vs DMSO controls); higher = stronger inhibition of sporulation, active = hit call of the paper
Where a name gives a salt, the structure may show the parent alone.
endpoint.name: CDA2-GFP sporulation assay sensitivity score

> print(dat)
                                   molecule  obs.value
1  Cc1[nH]cnc1CN1CCc2c(c3ccccc3n2C)C1=O [Alosetron hydrochloride] (stock concentration (mM, diluted 1:100): 8.9)      -0.89
2  CC(C)/N=c1\cc2n(-c3ccc(Cl)cc3)c3ccccc3nc-2cc1Nc1ccc(Cl)cc1 [Clofazimine] (stock concentration (mM, diluted 1:100): 10)       0.66
3  COc1ccc(C2CNC(=O)C2)cc1OC1CCCC1 (stereo unspecified) [Rolipram] (stock concentration (mM, diluted 1:100): 10)      -2.81
4  OCCN1C[C@H](O)[C@@H](O)[C@H](O)[C@H]1CO [Miglitol] (stock concentration (mM, diluted 1:100): 10)       1.46
5  Fc1ccc([C@@H]2CCNC[C@H]2COc2ccc3c(c2)OCO3)cc1 [Paroxetine] (stock concentration (mM, diluted 1:100): 8.8)      -1.35
6  CSc1nc2cc(Cl)c(Oc3cccc(Cl)c3Cl)cc2[nH]1 [Triclabendazole] (stock concentration (mM, diluted 1:100): 10)       0.58
